Test system: HCT-116 colon
ASSAY: NCI tumour cell line growth inhibition, 48 h
QUANTITY KIND: TGI

NC1=NC2=C(CCCC2)C(c2cccs2)S1 (stereo unspecified)    > 100 µM
N#C/C(=C\c1ccc(F)cc1)n1nc2cccc(F)c2n1    > 100 µM
NCCCn1c2c(c3ccc([N+](=O)[O-])cc3c1=O)C(=O)c1cc(F)ccc1-2    0.134 µM
O=C1c2cccnc2C(=O)c2c1c(C(=O)OCCc1ccccn1)c1ccccn21    0.318 µM
N#Cc1c2ccccc2c2nnc3ccccc3n12    > 100 µM
COC(=O)c1ccc(C)cc1C1CN=NC12Cc1cc(C)ccc1C2=O (stereo unspecified)    28.6 µM
CS(=N)(=O)CCC(N)P(=O)(O)O (stereo unspecified)    > 100 µM
CC(C)CC(NC=O)C(=O)NC(Cc1ccccc1)NC(=O)CNC(=O)C(C)NC(=O)C(N)Cc1ccc(O)cc1 (stereo unspecified)    > 100 µM
COc1ccc(-n2c(Cn3nnc(-c4cccnc4)n3)nn(C3OC(COC(=O)c4ccccc4)C(OC(=O)c4ccccc4)C3OC(=O)c3ccccc3)c2=S)cc1 (stereo unspecified)    > 100 µM
O=c1nc(N2CCCC2)nc(N2CCCC2)s1    > 100 µM
COc1ccc2c(c1)-c1nc(=O)n(CCCN(C)C)c3ccc([N+](=O)[O-])c(c13)N2    12.8 µM
CC(Cc1cccc2c1Nc1ccccc1S2)N(C)CCO (stereo unspecified)    > 100 µM
CN(C)CCN(C)C(=O)C1CCCN1C(=O)OCc1ccccc1 (stereo unspecified)    > 100 µM
Cc1ccc(S(=O)(=O)ON2C(=O)c3c(N)c(C#N)c(-c4ccccc4)c(-c4ccccc4)c3C2=O)cc1    33.1 µM
COc1ccccc1N1C(=O)CSC1c1cc(OC)c(OC)c(OC)c1 (stereo unspecified)    > 100 µM
O=C(Cc1ccccc1)NN1C(=O)C(Cl)C1c1cccc([N+](=O)[O-])c1 (stereo unspecified)    > 84.2 µM
CCCCCCCC(CC(=O)NC(CO)C(=O)NC(CO)CC(C)C)OC(=O)CC(CCCCCCC)OC(=O)CC(CCCCCCC)OC1OC(C)C(O)C(OC2OC(C)C(O)C(O)C2O)C1O (stereo unspecified)    20.8 µM
COc1ncc(-c2ccc3nccc(C#CCN4CCN(S(C)(=O)=O)CC4)c3c2)cc1NS(=O)(=O)c1ccc(F)cc1F    1.87 µM
COC(=O)[C@@H](C)C[C@H](Cc1ccccc1)NC(=O)c1csc([C@@H](C[C@H](C(C)C)N(C)C(=O)C2(NC(=O)[C@H]3CCCCN3C)CCC2)OC(C)=O)n1    2.52 µM
O=[N+]([O-])c1ccc(/C(Cl)=C/c2ccc(/C=C(\Cl)c3ccc([N+](=O)[O-])cc3[N+](=O)[O-])cc2)c([N+](=O)[O-])c1    > 100 µM
C=C(CN1CCN(c2ccccc2C(F)(F)F)CC1)c1ccc(C(=O)Nc2ccccc2N)cc1    16.3 µM
CCCOc1ccc(/C=N/Nc2cc(C)nc3ccc(Cl)cc23)cc1    3.32 µM
Nc1nc(N)c2ncn(-c3ccccc3)c2n1    > 100 µM
O=C1NC(=O)C(c2ccccc2)=C1Nc1ccccc1    > 25 µM
C(=N\NC1=NCCN1)/c1cccc2cc3ccncc3nc12    3.19 µM
CCOC(=O)C1(C#N)C(C#N)(C#N)C1(C#N)C#N    > 100 µM
O=C1CCN2C(=N1)Sc1ccccc12    > 100 µM
CCN(CC)C(=S)N/N=C/c1cc(OC)ccc1O    > 100 µM
Cc1cnc2c(c1)C(=O)N(c1ccc([N+](=O)[O-])cc1)S2(=O)=O    > 100 µM
NC(=N\N=C/c1ccc(Cl)cc1Cl)/C(N)=N\N=C/c1ccc(Cl)cc1Cl    > 100 µM
O=C(O)c1cn(C2CC2)c2cc(N3CCN(C(=O)Nc4nc(-c5ccc(Br)cc5)cs4)CC3)c(F)cc2c1=O    > 100 µM
OCC1OC(n2cnc3c(SCc4ccccc4)ncnc32)C(O)C1O (stereo unspecified)    > 100 µM
Cc1cccc(N=C/C=C(\Cl)c2ccc3ccccc3c2)c1    9.02 µM
CCCCCCCCCC/C=C/C=O    > 100 µM
CC1CCC2CC1NC(=O)CCOCCC(=O)NC2(C)C (stereo unspecified)    > 100 µM
CC(C)(CN1CCCCC1)C(=O)CC(SCCN)c1ccc(Cl)cc1 (stereo unspecified)    7.61 µM
O=C(Cc1ccc(Nc2ccnc(C(F)(F)F)c2)cc1)N/N=C/c1ccccc1O    > 39.6 µM
COC1=CC(=O)c2c(cc3c(c2O)-c2c(OC)cc4cc5c(c(O)c4c2OC(=O)CC(C)(O)C3)C(=O)CC(C)(O)C5)C1=O (stereo unspecified)    7.58 µM
COC(=O)[C@H](COC(C)(C)C)NC(=O)N[C@H](C)c1ccccc1    > 100 µM
Cc1c(-c2nc(N)c(C#N)c(N)c2C#N)c(=O)oc2ccccc12    > 100 µM
O=c1[nH]c(F)nc2c1ncn2C1OC(CO)C(O)C1O (stereo unspecified)    > 100 µM
